Assay: Solubility
Assay type: physicochemical
Details: water; read-out: solubility in water
PROPERTY LABEL: solubility

# solubility (molecule: C=CC(=O)Nc1cccc(Nc2nc(Nc3ccc(OCCOC)cc3)ncc2F)c1.O=S(=O)(O)c1ccccc1 [Compound 1 besylate] ) is ~160 µg/mL

---

Test: Solubility
Type: physicochemical
Details: ethanol, organic solvent or mixture; read-out: solubility in ethanol
PROPERTY LABEL: solubility

# compound C=CC(=O)Nc1cccc(Nc2nc(Nc3ccc(OCCOC)cc3)ncc2F)c1.O=S(=O)(O)c1ccccc1 [Compound 1 besylate] ; its solubility = ~10000 µg/mL
